Where do the numbers come from? From patent US9266834B2.

The molecules listed here are annotated with their melting point.

The molecule CCCOc1ccc(-c2ccn(CCC(C)C)c(=O)c2C#N)cc1 [1-105] showed melting point equal to 107 °C

Field melting point (entry N#Cc1c(N2CCN(CCc3ccccc3)CC2)ccn(Cc2ccc(OC(F)(F)F)cc2)c1=O [2-043] ) reads 110 °C

Sure, the documented melting point for COc1cccc(COc2ccc(-c3ccn(CCC(C)C)c(=O)c3C#N)cc2)c1 [1-144] is 100 °C

Briefly, melting point measured for CCCCn1ccc(-c2cccs2)c(C#N)c1=O [1-059] : 103 °C

melting point reading for CC(C)CCn1ccc(-c2ccc(OCc3ccc(C#N)cc3)cc2)c(C#N)c1=O [1-153] : 171 °C

Quick note, melting point for CC(C)CCn1ccc(-c2ccc(CC(=O)N(C)C)cc2)c(C#N)c1=O [1-244] landed at 122 °C

Entry N#Cc1c(-c2ccc(OCCCN3CCOCC3)cc2)ccn(Cc2ccc(OC(F)(F)F)cc2)c1=O [1-038] ; melting point = 140 °C

# molecule CC(C)CCn1ccc(-c2ccc(OCc3ccccc3)c(Cl)c2)c(C#N)c1=O [1-150] ; its melting point = 177 °C

// sample CC(C)CCn1ccc(-c2ccc(N3CCOCC3)cc2)c(C#N)c1=O [1-223] , its melting point was 171 °C

###

- system: human mGluR2 receptor (Homo sapiens, UniProt Q14416)
- Construct: expressed in transfected cells; host or cells: CHO cells (membrane preparation)
- Sequence (Q14416 19-872): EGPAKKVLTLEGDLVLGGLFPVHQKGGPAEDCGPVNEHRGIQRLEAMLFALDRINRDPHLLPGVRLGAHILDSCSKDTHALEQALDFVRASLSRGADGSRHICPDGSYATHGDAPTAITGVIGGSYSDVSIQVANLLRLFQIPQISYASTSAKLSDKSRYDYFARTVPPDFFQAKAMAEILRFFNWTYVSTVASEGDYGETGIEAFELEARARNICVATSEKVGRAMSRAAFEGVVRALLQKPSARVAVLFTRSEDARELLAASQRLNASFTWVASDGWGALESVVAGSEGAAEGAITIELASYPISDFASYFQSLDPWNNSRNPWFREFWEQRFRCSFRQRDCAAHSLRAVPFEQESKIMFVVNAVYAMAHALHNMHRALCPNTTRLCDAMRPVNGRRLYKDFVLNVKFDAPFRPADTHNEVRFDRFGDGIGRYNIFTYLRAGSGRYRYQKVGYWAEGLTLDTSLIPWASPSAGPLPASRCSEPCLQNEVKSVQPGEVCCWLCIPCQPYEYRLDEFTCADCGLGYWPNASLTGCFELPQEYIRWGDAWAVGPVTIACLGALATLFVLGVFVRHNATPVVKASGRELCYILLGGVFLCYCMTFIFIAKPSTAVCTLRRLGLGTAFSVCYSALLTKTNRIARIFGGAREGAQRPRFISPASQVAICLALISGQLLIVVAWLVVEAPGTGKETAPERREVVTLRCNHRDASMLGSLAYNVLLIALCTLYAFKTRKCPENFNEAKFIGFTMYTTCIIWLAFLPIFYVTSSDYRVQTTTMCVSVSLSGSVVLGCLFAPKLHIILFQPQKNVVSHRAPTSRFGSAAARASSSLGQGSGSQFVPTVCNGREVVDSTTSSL
- method description: [35S]GTPγS binding assay (GTPγS-PAM): positive allosteric modulation in presence of glutamate at EC25, membranes from transfected CHO cells
- Format: biochemical
- reported conditions: in presence of mGluR2 agonist glutamate at predetermined EC25 concentration, averages of duplicate values of 11-concentration response curves, read-out: GTPgS - hR2 PAM pEC50 (converted)
- Experimental: The compounds provided in the present invention are positive allosteric modulators of mGluR2. These compounds appear to potentiate glutamate responses by binding to an allosteric site other than the glutamate binding site. […] The [^35S]GTPγS binding is a functional membrane-based assay used to study G-protein coupled receptor (GPCR) function whereby incorporation of a non-hydrolysable form of GTP, [^35S]GTPγS (guanosine 5′-triphosphate, labelled with gamma-emitting ^35S), is measured. […]
// reported log10 of EC50 for each item listed
The base-10 logarithm of EC50, taken with EC50 in nM, is what appears here.

Examples from the recorded data:
N#Cc1c(C#Cc2ccncc2)ccn(CC2CCCCC2)c1=O [5-049] | 3.20
CC(C)CCn1ccc(N2CCC(c3nc4ccccc4o3)CC2)c(C#N)c1=O [4-038] | 2.60
COc1ccc(-c2ccn(CCC(C)C)c(=O)c2C#N)c(F)c1 [1-113] | 2.80
CC(C)CCn1ccc(-c2ccc(C(C)(C)C)cc2)c(C#N)c1=O [1-086] | 1.80
CC(C)CCn1ccc(OCc2ccc(OC(F)F)cc2)c(C#N)c1=O [1-284] | 2.80
CC(C)CCn1ccc(-c2ccc(Oc3ccccn3)cc2)c(C#N)c1=O [1-154] | 2.70

Form: compound = N#Cc1c(-c2ccccc2)ccn(CCCc2ccccc2)c1=O [1-053] ; log10 of EC50 = 3.70

Looking up N#Cc1c(-c2ccc(Oc3ccnc(N4CCCC4)c3)cc2)ccn(CC2CC2)c1=O [1-005] , I see its log10 of EC50 listed as 2.60

Entry COc1cccc(Oc2ccc(-c3ccn(CCC(C)C)c(=O)c3C#N)cc2)c1 [1-143] ; log10 of EC50 = 1.90

Memo: CC(C)CCn1ccc(-c2ccc(OCc3nnc[nH]3)cc2)c(C#N)c1=O [1-168] , reported log10 of EC50: 3.80

log10 of EC50 in this record for CC(C)CCn1ccc(C#Cc2ccc(N(C)C)cc2)c(C#N)c1=O [1-270] : 2.00

For this compound ( CCCCn1ccc(-c2ccc3c(c2)nc(C)n3Cc2ccccn2)c(C#N)c1=O [5-002] ), measured log10 of EC50 is 3.80

CC(C)CCn1ccc(C#Cc2cccc(N(C)C)c2)c(C#N)c1=O [1-269] yielded log10 of EC50 of 2.20

So, CC(C)CCn1ccc(-c2ccc(Oc3ccncc3)cc2F)c(C#N)c1=O [1-161] ? Its log10 of EC50 was 2.80

So for CC(C)CCn1ccc(-c2ccc3sccc3c2)c(C#N)c1=O [1-259] , the logged log10 of EC50 turned out to be 2.30

Just so you know, measured log10 of EC50 for COc1cc2c(cc1OC)CN(c1ccn(CCC(C)C)c(=O)c1C#N)CC2 [5-032] came out at 3.10

###

Each entry below lists one item and its recorded melting point value.

CC(C)CCn1ccc(-c2ccccc2)c(C#N)c1=O | 142 °C

For record "N#Cc1c(-c2ccc(CCCO)cc2)ccn(Cc2ccc(OC(F)(F)F)cc2)c1=O" the listed melting point is 180 °C

Sure, the documented melting point for "N#Cc1c(-c2ccc(OC(F)(F)F)cc2)ccn(CC2CCCC2)c1=O" is 159 °C

Sure, the documented melting point for "CC(C)CCn1ccc(-n2ncc3ccccc32)c(C#N)c1=O" is 234 °C

Kindly note the recorded melting point for "CC(C)CCn1ccc(-c2ccc(OCC3CC3)c(Cl)c2)c(C#N)c1=O" , which is 294 °C

Record "CC(C)Cn1ccc(-c2ccc(Oc3ccncc3)cc2)c(C#N)c1=O" . Reported melting point: 170 °C

// field: melting point; key: "CC(C)CCn1ccc(-c2ccc(NCc3ccc(C#N)cc3)cc2)c(C#N)c1=O" ; value = 209 °C

# compound "CCCCn1ccc(N2CCC(c3ccnc(C)c3)CC2)c(C#N)c1=O" ; its melting point = 132 °C

What the record says about "CC(C)CCn1ccc(-c2ccc3c(c2)CCO3)c(C#N)c1=O" : melting point is 117 °C

Notebook: "CC(C)CCn1ccc(-c2ccc(OCc3ccc(Cl)nc3)cc2)c(C#N)c1=O" , melting point read as 165 °C

###

Each record here notes measured melting point.
Numeric only. Scale: °C

Worked cases, answers included:
CC(C)CCn1ccc(N2CCC(c3nc4ccccc4o3)CC2)c(C#N)c1=O | 214
CCCC(C)n1ccc(-c2cccs2)c(C#N)c1=O (centres unmarked) | 103
CC(C)CCn1ccc(-c2ccc(N3CCOCC3)c(Br)c2)c(C#N)c1=O | 118
CC(C)CCn1ccc(-c2ccc(NCc3cccc(F)c3)cc2)c(C#N)c1=O | 136

As a next step, examine the compound that follows.
melting point measured on "CC(C)CCn1ccc(-c2ccc(CCC(=O)O)cc2)c(C#N)c1=O" = 169

###

Catalogue of melting point values
Give the number; °C is assumed, so skip it.

Completed entries (count: 3):
CC(=O)NCc1ccc(-c2ccn(CCC(C)C)c(=O)c2C#N)cc1 [1-179] | 144
CN(Cc1cccc(F)c1)C1CCN(c2ccn(Cc3ccc(F)cc3)c(=O)c2C#N)CC1 [4-057] | 242
CC(C)CCn1ccc(N2CCN(c3ncccc3C(F)(F)F)CC2)c(C#N)c1=O [2-026] | 135

// next entry
For CC(C)CCn1ccc(-c2ccc(C(=O)N3CCN(Cc4ccc(OC(F)(F)F)c(Cl)c4)CC3)cc2)c(C#N)c1=O [1-247] the compound record lists melting point as 217

###

- system: human mGluR2 receptor (Homo sapiens)
- Construct: expressed in transfected cells; host or cells: CHO cells (membrane preparation)
- method description: [35S]GTPγS binding assay (GTPγS-PAM): positive allosteric modulation in presence of glutamate at EC25, membranes from transfected CHO cells
- Format: biochemical
- reported conditions: in presence of mGluR2 agonist glutamate at predetermined EC25 concentration, averages of duplicate values of 11-concentration response curves, read-out: GTPgS - hR2 PAM pEC50 (converted)
Please use condition met for EC50 under 800 nM and condition not met for everything else, ties included.

CC(C)CCn1ccc(C(=O)N2CCN(c3ncccn3)CC2)c(C#N)c1=O | condition not met
CC(C)CCn1ccc(N2CCC(CCOc3ccc(F)cc3)CC2)c(C#N)c1=O | condition met
CC(C)CCn1ccc(-c2ccc(N(C)c3ccccc3)cc2)c(C#N)c1=O | condition met

Moving on to another molecule below.
Challenge: I wonder whether "CC(C)CCn1ccc(OC2CCN(Cc3ccccc3)CC2)c(C#N)c1=O" has EC50 below 800 nM. Can you tell?
Response given: condition not met

###

- system: human mGluR2 receptor (Homo sapiens, UniProt Q14416)
- Construct: expressed in transfected cells; host or cells: CHO cells (membrane preparation)
- method description: [35S]GTPγS binding assay (GTPγS-PAM): positive allosteric modulation in presence of glutamate at EC25, membranes from transfected CHO cells
- Format: biochemical
- reported conditions: in presence of mGluR2 agonist glutamate at predetermined EC25 concentration, averages of duplicate values of 11-concentration response curves, read-out: GTPgS - hR2 PAM pEC50 (converted)
The reader will find reported EC50 values listed item by item below.
Answer in nM, number only, no unit symbol.

CCCCn1ccc(N2CCC(COc3cccnc3)CC2)c(C#N)c1=O | 1580
CCCOc1ccc(-c2ccn(CCC(C)C)c(=O)c2C#N)cc1 | 398
N#Cc1c(N2CCC(N3Cc4ccc(F)cc4C3)CC2)ccn(Cc2ccc(F)cc2)c1=O | 1580
CC(C)CCn1ccc(N2CCN(c3ccccn3)CC2)c(C#N)c1=O | 2000
COc1ccc2c(c1)C1CCCN(c3ccn(CCC(C)C)c(=O)c3C#N)C1CC2 (centres unmarked) | 1580

Sample "CC(=O)N1CCN(c2ccc(-c3ccn(CCC(C)C)c(=O)c3C#N)cc2)CC1" ; EC50 observed: 1580

For record "CC(C)CCn1ccc(OCc2ccc(Br)cc2)c(C#N)c1=O" the listed EC50 is 316

response.value for "CC(C)CCn1ccc(-c2ccc(OCc3ccc(C(F)(F)F)nc3)cc2)c(C#N)c1=O" (field: EC50) = 79.4
